Quick reference: bioavailability of the listed items.
Assay: Oral bioavailability in Sprague-Dawley rat at 10 mg/kg by LC-ESI-TOF/MS or LC-ESI-MS/MS method
Assay type: ADME, organism-based
Details: in vivo
REPORTED METRIC: bioavailability (%)

{"MOL": "Nc1cc(Nc2cc(Cl)c3n(c2=O)C2(CCCCC2)NC3=O)ncn1", "RESULT NUMBER": 28}
{"MOL": "Cc1cc(Nc2cc(N)ncn2)c(=O)n2c1C(=O)NC21CCCCC1", "RESULT NUMBER": 85}
{"MOL": "Cc1cc(Nc2cc(N)ncn2)c(=O)n2c1C(=O)NC21CCC(F)(F)CC1", "RESULT NUMBER": 56}
{"MOL": "Nc1cc(Nc2cc(Cl)c3n(c2=O)C2(CCCC2)NC3=O)ncn1", "RESULT NUMBER": 69}
{"MOL": "CC1(C)NC(=O)c2c(Cl)cc(Nc3cc(N)ncn3)c(=O)n21", "RESULT NUMBER": 50}
